molecular target: Aldehyde dehydrogenase 1A1 (Homo sapiens); experiment: qHTS Assay for Inhibitors of Aldehyde Dehydrogenase 1 (ALDH1A1); conditions: Purified ALDH1A1, NADH fluorescence, propionaldehyde substrate; series mostly up to 75.3 µM
About 16,000 (7.3%) of roughly 220,000 compounds were called active. Inconclusive results (about 25%) are left out. The call rests on the fitted dose curve; in most records, active means well fitted inhibition curve with a large enough effect (not every such curve was filed as active); inconclusive means small, poorly fitted or top-dose-only effect, or another doubt; inactive means no such curve, though single readings can be large or run the other way. The list comes from a sample in which actives are over-represented; it also holds close analogues and randomly drawn compounds.
Output constraint: value belongs to Y (active), N (inactive)

> print(dat)
                                   molecule                            assayed.target  assigned.class
1   COC(=O)Cc1ccc(Oc2ncc(C(F)(F)F)cc2Cl)cc1  Aldehyde dehydrogenase 1A1 (Homo sapiens)               N
2  CCC(=O)NCc1cc(-c2nn(C)c(=O)c3ccccc23)ccc1OC  Aldehyde dehydrogenase 1A1 (Homo sapiens)               N

Hey, what did the test say about O=C(C1CCN(S(=O)(=O)c2ccc(Br)s2)CC1)N1CCN(C2CCCCC2)CC1 ?
N

Hey, what did the test say about CS(=O)(=O)N1CCc2cc(C(=O)Nc3ccccc3)ccc21 ?
N

Hey, what did the test say about Cc1ccnc(NC(=O)c2ccc(Cl)c([N+](=O)[O-])c2)c1 ?
N

Hey, what did the test say about CC(C)OC(=O)Cn1nc(C(F)(F)F)c2c1CCCC2 ?
N

Hey, what did the test say about Cc1ccccc1CSCC(=O)NC(=O)NC(C)(C)C ?
N

Hey, what did the test say about O=C(CSc1nc(-c2ccco2)cc(C(F)(F)F)n1)N1CCc2ccccc2C1 ?
Y

Hey, what did the test say about COCCN(C(=O)c1ccccc1F)c1c(N)n(Cc2ccccc2)c(=O)[nH]c1=O ?
N

Hey, what did the test say about N#Cc1ccc(-c2nc3cc(C#N)c(C#N)cc3nc2-c2ccccc2)cc1C#N ?
N

Hey, what did the test say about Cc1ccc(OCC(=O)NNC(=S)NCc2ccccc2)cc1 ?
N

Hey, what did the test say about COC(=O)c1ccc(OCC(O)CN(CCO)CC(O)Cn2ccc3ccccc32)cc1 (configuration not stated) ?
N

Hey, what did the test say about COc1ccccc1-n1nnnc1S(=O)(=O)Cc1ccc(Cl)cc1 ?
Y

Hey, what did the test say about C=CCNC(=O)COC(=O)CNC(=O)c1cc(Cl)cc([N+](=O)[O-])c1 ?
N

Hey, what did the test say about CCC(C)(C)NC(=O)/C=C/c1cc(OC)c(OC)c(S(=O)(=O)N2CCc3ccccc32)c1 ?
N

Hey, what did the test say about CS(=O)(=O)N1CCN(c2ccc(C(=O)NC3C4CC5CC(C4)CC3C5)cc2[N+](=O)[O-])CC1 (configuration not stated) ?
Y

Hey, what did the test say about CC(=O)c1ccc(NC(=O)C(C)NCc2ccc(Cl)cc2)cc1 (configuration not stated) ?
N

Hey, what did the test say about COCc1cc(C(C)=O)ccc1OC ?
N

###

molecular target: Aldehyde dehydrogenase 1A1 (Homo sapiens); experiment: qHTS Assay for Inhibitors of Aldehyde Dehydrogenase 1 (ALDH1A1); settings: Purified ALDH1A1, NADH fluorescence, propionaldehyde substrate; series mostly up to 75.3 µM
The campaign covered roughly 220,000 compounds. About 16,000 (7.3%) were called active. Roughly 25% stayed inconclusive and do not appear here. The sample as a whole holds a higher share of actives than the screen did.
measure name: outcome

> print(dat)
                                   compound  observed
1  O=C(NCc1ccc(F)cc1)C(c1ccccc1)N(C(=O)c1csnn1)C1CC1 (stereo not drawn)  inactive
2  Nc1ccc(C(=O)OCC(=O)NC2CCS(=O)(=O)C2)cc1[N+](=O)[O-] (stereo not drawn)  inactive
3  CC(=O)C1C(c2ccc(Cl)cc2)c2c(n[nH]c2C)CC1(C)O (stereo not drawn)  inactive

###

biological target: Aldehyde dehydrogenase 1A1 (Homo sapiens); experiment: qHTS Assay for Inhibitors of Aldehyde Dehydrogenase 1 (ALDH1A1); conditions: Purified ALDH1A1, NADH fluorescence, propionaldehyde substrate; series mostly up to 75.3 µM; further: potency means the concentration at half of the fitted maximal effect
In all, about 220,000 compounds went through this assay and about 16,000 (7.3%) were called active. Roughly 25% stayed inconclusive and do not appear here. Shown is part of a subset that was picked to be rich in actives.
measure name: Potency

Example entries and their recorded answers appear below.
> print(dat)
                                   molecule                            assayed.target           observed
1  Cc1sc2c(c1C)c(=O)n(-c1ccccc1)c(=O)n2CC(=O)NCC1CCCO1 (stereo not given)  Aldehyde dehydrogenase 1A1 (Homo sapiens)           inactive
2      CCCc1cc(-c2n[nH]c(=S)n2CC)c2ccccc2n1  Aldehyde dehydrogenase 1A1 (Homo sapiens)           inactive
3  O=c1c2cc3c(=O)n(CC4CCCO4)c(=O)c3cc2c(=O)n1CC1CCCO1 (stereo not given)  Aldehyde dehydrogenase 1A1 (Homo sapiens)  0.316 µM (active)
4     CN(C)/N=C/c1cn(-c2ccccc2)nc1-c1cccnc1  Aldehyde dehydrogenase 1A1 (Homo sapiens)           inactive

Please look at the following molecule next.
Need Potency, item O=C(CSc1cccc[n+]1[O-])c1ccc(Cl)cc1
inactive

###

biological target: Aldehyde dehydrogenase 1A1 (Homo sapiens); assay: qHTS Assay for Inhibitors of Aldehyde Dehydrogenase 1 (ALDH1A1); conditions: Purified ALDH1A1, NADH fluorescence, propionaldehyde substrate; series mostly up to 75.3 µM
In all, about 220,000 compounds went through this assay and about 16,000 (7.3%) were called active. Not shown: some 25% with an inconclusive outcome. Calls come from the whole dose curve; as a rule, active = well fitted inhibition curve with a large enough effect (not every such curve was filed as active); inconclusive = small, poorly fitted or top-dose-only effect, or another doubt; inactive = no such curve, though single readings can be large or run the other way. What follows is part of a selection rich in actives, with near analogues and random picks from the rest.
Output constraint: value belongs to active, inactive

Check out these entries, answers already filled in.
> print(dat)
                                   compound                            assayed.target  assigned.class
1  CCOC(=O)c1ccc(N2C(=O)CC(N(C)Cc3ccccc3)C2=O)cc1 (stereo not given)  Aldehyde dehydrogenase 1A1 (Homo sapiens)          active
2  N#CC1=C(N)Oc2n[nH]c(CSc3ccccc3)c2C12C(=O)Nc1ccccc12 (stereo not given)  Aldehyde dehydrogenase 1A1 (Homo sapiens)          active
3  C/C=C/c1ccc(OCC(O)CN2CCCCCCC2)c(OC)c1 (stereo not given)  Aldehyde dehydrogenase 1A1 (Homo sapiens)        inactive
4  CCOC(=O)c1ccc(N2C(=O)CC(N3CCN(C(=O)c4ccccc4)CC3)C2=O)cc1 (stereo not given)  Aldehyde dehydrogenase 1A1 (Homo sapiens)          active
5    O=[N+]([O-])c1ccccc1N/N=C1\CCc2ccccc21  Aldehyde dehydrogenase 1A1 (Homo sapiens)        inactive
6  COc1ccc(-c2[nH]ncc2CN(Cc2nccn2C)C(C)C)cc1F  Aldehyde dehydrogenase 1A1 (Homo sapiens)        inactive
7  CCN1CCN(C(c2cccnc2)c2cc(Cl)c3cccnc3c2O)CC1 (stereo not given)  Aldehyde dehydrogenase 1A1 (Homo sapiens)          active
8       CCOC(=O)c1cccc(NC(=O)CCOc2ccccc2)c1  Aldehyde dehydrogenase 1A1 (Homo sapiens)        inactive
9           Cc1ccc(C(=O)O)cc1N1C(=O)CCCC1=O  Aldehyde dehydrogenase 1A1 (Homo sapiens)        inactive

Next compound, please.
Hey, what did the test say about CCC1CCCCN1C(=O)CSc1nc(C)cc(C)n1 (stereo not given) ?
inactive

###

target: Aldehyde dehydrogenase 1A1 (Homo sapiens) (UniProt P00352); assay: qHTS Assay for Inhibitors of Aldehyde Dehydrogenase 1 (ALDH1A1); details: Purified ALDH1A1, NADH fluorescence, propionaldehyde substrate; series mostly up to 75.3 µM
Sequence (P00352 whole entry, looked up): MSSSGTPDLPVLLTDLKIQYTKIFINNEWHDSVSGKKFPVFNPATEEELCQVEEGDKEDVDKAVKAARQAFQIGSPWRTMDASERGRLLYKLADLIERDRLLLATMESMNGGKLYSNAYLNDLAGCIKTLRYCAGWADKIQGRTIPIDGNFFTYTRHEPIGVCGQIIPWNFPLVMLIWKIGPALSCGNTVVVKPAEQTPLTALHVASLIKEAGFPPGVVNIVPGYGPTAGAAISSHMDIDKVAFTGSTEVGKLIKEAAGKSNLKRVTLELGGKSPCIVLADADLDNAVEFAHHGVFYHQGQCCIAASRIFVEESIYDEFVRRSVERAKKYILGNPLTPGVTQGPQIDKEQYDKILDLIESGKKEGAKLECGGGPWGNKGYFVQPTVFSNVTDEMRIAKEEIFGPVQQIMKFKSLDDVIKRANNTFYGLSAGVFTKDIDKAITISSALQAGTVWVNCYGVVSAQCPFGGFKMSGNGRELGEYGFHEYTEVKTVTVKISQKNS
Among all 220,000 compounds or so, about 16,000 (7.3%) were called active. Another 25% or so got no clear call; they are omitted. The call rests on the fitted dose curve; in most records, active means well fitted inhibition curve with a large enough effect (not every such curve was filed as active); inconclusive means small, poorly fitted or top-dose-only effect, or another doubt; inactive means no such curve, though single readings can be large or run the other way. The list comes from a sample in which actives are over-represented; it also holds close analogues and randomly drawn compounds.
Output constraint: value belongs to active, inactive

Check out these entries, answers already filled in.
> print(dat)
                    structure.smiles.string                            assayed.target  assigned.class
1             O=C(Nc1cccnc1)c1ccc2c(c1)OCO2  Aldehyde dehydrogenase 1A1 (Homo sapiens) (UniProt P00352)        inactive
2  Cn1c(=O)[nH]c(=O)c2c1nc(N1CCCCCC1)n2CC(=O)c1ccccc1  Aldehyde dehydrogenase 1A1 (Homo sapiens) (UniProt P00352)        inactive
3  O=C(c1csnn1)N1CCC[C@@]2(CCN(Cc3nccs3)C2)C1  Aldehyde dehydrogenase 1A1 (Homo sapiens) (UniProt P00352)        inactive

Hey, what did the test say about COc1cc(NC(=S)NNC(=O)CC(C)C)c(OC)cc1Cl ?
active

Hey, what did the test say about O=C(Nc1ccccc1C(=O)N1CCOCC1)c1ccc(Cl)cc1 ?
inactive

Hey, what did the test say about CCCCN(CC)CCNC(=O)CCNC(=O)Cn1ccc2ccccc2c1=O ?
inactive

Hey, what did the test say about Cc1ccc(C(C)(C)C)c(OCCCCN2CCCC2)c1 ?
inactive

Hey, what did the test say about CCn1cc(/C=C2/SC(=S)NC2=O)c(C)n1 ?
inactive

Hey, what did the test say about Cc1cc([N+](=O)[O-])nn1CCCC(=O)Nc1cccnc1Cl ?
inactive
